B1: APBB1IP (parent)
chain: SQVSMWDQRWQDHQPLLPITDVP

variants of: B1; test: protein stability index of a GFP-peptide fusion (GPS, HEK-293T) (PSI 1-6); higher = more stable; conditions: c terminus: native;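 also: lentivirally expressed fusions sorted by FACS into six bins by GFP to DsRed ratio, PSI derived from sequencing read proportions per bin multiplied by bin number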
# cutoff 2 applies to protein stability index; >= gives label 1, < gives label 0

1. P23R ... label 1
2. Q14F ... label 1
3. R9V ... label 1
4. P23A ... label 1
5. W6H ... label 1

Query string: Evaluate W6T : protein stability index at minimum 2?
Result string: label 1

Query string: Try this variant next: V22N
Result string: label 1

Query string: Continue with R9A
Result string: label 0

Query string: Ok, now V22I
Result string: label 1

Query string: Please do the same for V22M as well.
Result string: label 1

Query string: Field entry: R9H
Result string: label 1

Query string: Entry to check: D12K
Result string: label 0

Query string: Same for Q14V
Result string: label 1

Query string: How about P18S ?
Result string: label 1

Query string: Repeat with P23D
Result string: label 1

Query string: Same lookup for Q8V , please.
Result string: label 1

Query string: Then I19V ?
Result string: label 1

Query string: // next record L17I
Result string: label 0

Query string: Now this one: S1L
Result string: label 0

Query string: Continue with Q11G
Result string: label 0

Query string: Same lookup for P23C , please.
Result string: label 1

Query string: Similarly, R9N ?
Result string: label 1

Query string: And for P18R ?
Result string: label 1

Query string: Now the same for W6Q
Result string: label 1

Query string: Same for W6Y
Result string: label 1
